# EXPERIMENT SUMMARY: soluble on expression in E. coli; label from the status in PepcDB or PDB records

>  <RESIDUES>
MADLFDGMKRRMDALIAERFGMKVNINGTDCIVVESDFLAELGPVEGNGKNVVVFSGNVIPRRGDRVVLRGSEFTVTRIRRFNGKPQLTLEENNGGKGA

>  <soluble on expression in E. coli>
soluble

$$$$
>  <RESIDUES>
TVEDSESDMDDAKLDALMGNEGEEEEDDLAEIDTSNIITSGRRTRGKVIDYKKTAEELDKKE

>  <soluble on expression in E. coli>
soluble

$$$$

----------
# EXPERIMENT SUMMARY: soluble on expression in E. coli; label from the status in PepcDB or PDB records

>  <RESIDUES>
MAHHHHHHMNKTKIESSYFTYQNNHSKIGNPILYKGEVIGMEIIDIRVKDDVEGLFNVCSCYLDNEHHAYNKCSESDIHYMQISSIRIIIKIVHNINILTGKKLHINLQDYVTPYPIKSAFIIKKVEHYSCNNINNKSFNEIQEHFYNNEKKLKFYNIFLYETDLQEFKEDIIFENPGMYLLCYTSNDSQSEYSAELSTILVNGNY

>  <soluble on expression in E. coli>
not soluble

$$$$
>  <RESIDUES>
MGSDKIHHHHHHMTPTVMVVDESRITFLAVKNALEKDGFNVIWAKNEQEAFTFLRREKIDLVFVDVFEGEESLNLIRRIREEFPDTKVAVLSAYVDKDLIINSVKAGAVDYILKPFRLDYLLERVKKIISSTPRVTVSLRKNIEDLEITLKFEDIVRKEIKRSNRTGSRFCVMYVKFEDIMRDYETIKKFFRETDYVLPISASEYLFVLTLTGKHGIEAVTRRMKEKLSERFSYTYVCYPDDGKTYEEIILTLKDRMAKPRGNES

>  <soluble on expression in E. coli>
not soluble

$$$$
>  <RESIDUES>
MSLNQTFDKENLESKNTQNLQKSKNPTSQLSKTILKEEFNFLPNDVEINWKGRVLVIGDIHGDLKSLITSLFLSGVINSNLDWIAKNTLLIQLGDVVDRGSHALQIYKLFNKLKSQAPSLGSKFVGLLGNHEVMNLCGQLHYVTDEDFQTYGGRDNRTFEWSKEGFVGKYLRTMKLAIRVNDSLYVHAGLLPKYAKLGLDKLDKLSNDLLEGDFCDFYSSLFFVEDGPLWTRDISLGEEEKACKLVDETLQILGLSRMVVGHTIQHDNRINIKCDNKLILADTGFSEAIYGKPCMLEILYHNDNPDPSNYKSFHPYSEGHHHHHH

>  <soluble on expression in E. coli>
not soluble

$$$$

----------
# EXPERIMENT SUMMARY: soluble on expression in E. coli; label from the status in PepcDB or PDB records

>  <RESIDUES>
MGHHHHHHSHPKGVLPSHYYESFLEKKGPCDRDYKKFWAGLQGLTIYFYNSNRDFQHVEKLNLGAFEKLTDEIPWGSSRDPGTHFSLILRNQEIKFKVETLECREMWKGFILTVVELRVPTDLTLLPGHLYMMSEVLAK

>  <soluble on expression in E. coli>
not soluble

$$$$
>  <RESIDUES>
MGSDKIHHHHHHMNNTTENGQYFVAAFEPGAEHPALPTWASCNDNGAELALSAPSTVSKKPLTDVPGAFQLLNVLSADECQRLISVSETMGFLPDAAVSLPRNVRHNDSLTWVVDNTTERLIWDRIAGVMTDDLGIFEGKAALGLNNRFRFYRYNEGDYFKPHSDGSWPGSQVIDGELVRDAFGDRYSQLTFLILLTEDFEGGATRFLVNADKPNLPAKHGDNMRQVDVRTPAGSVLCFPHGMHPLHCIHSSEPIFSGVKYIIRTDVLFEL

>  <soluble on expression in E. coli>
not soluble

$$$$
>  <RESIDUES>
AMLPHGLIVSCQALPDEPLHSSFIMSKMALAAYEGGAVGIRANTKEDILAIKETVDLPVIGIVKRDYDHSDVFITATSKEVDELIESQCEVIALDATLQQRPKETLDELVSYIRTHAPNVEIMADIATVEEAKNAARLGFDYIGTTLHGYTSYTQGQLLYQNDFQFLKDVLQSVDAKVIAEGNVITPDMYKRVMDLGVHCSVVGGAITRPKEITKRFVQVMED

>  <soluble on expression in E. coli>
soluble

$$$$
>  <RESIDUES>
MPTFLECPHCQRLYSKHSLLIHEKNCIESMHKILEQEKLKMQNNQKRGRSKSGRRKKIRPAEMTTTERPRTRSLSRYNHENNGLRICFVCGEQYDDQVIEEHKEKCYGDWSILSKSLSVRFHIHQPKTLNTPSIDGTIDVARENMRAVQSSHNCQIVRCRFCNARISLQHAQSHQCVRFEPTIEFYC

>  <soluble on expression in E. coli>
soluble

$$$$
